The reported measurements were obtained from patent US8524899B2.

System: 5′-TGGXCA-3′ (X=A, T, G, C)
assay_overview: DNase I footprint titration, single Hz/Py, Py/Hz, Hz/Bi, Bi/Hz pair position
Type: binding

chemical_structure	unit_text	selectivity for A,T over G,C
CN(C)CCCNC(=O)CCNC(=O)c1cc(NC(=O)c2cc(NC(=O)c3ccc4nc(-c5nc(NC(=O)CCCNC(=O)c6cc(NC(=O)c7ccc8nc(-c9nc(NC(=O)c%10nccn%10C)cn9C)[nH]c8c7)cn6C)cn5C)[nH]c4c3O)cn2C)cn1C	fold	4.5
CN(C)CCCNC(=O)CCNC(=O)c1cc(NC(=O)c2cc(NC(=O)c3ccc4nc(-c5nc(NC(=O)CCCNC(=O)c6cc(NC(=O)c7ccc8nc(-c9nc(NC(=O)c%10nccn%10C)cn9C)[nH]c8c7O)cn6C)cn5C)[nH]c4c3)cn2C)cn1C	fold	13
